# System: Escherichia coli
# test-context: Concentration 20 uM; ASSAY_TEST Inhibition of Bacterial Growth; detection method Absorption (OD600); MEDIA CAMHB; plate type 384well; NBS; CORNING #3640; time 18 hr
# Description: Antibacterial activity against Escherichia coli ATCC 25922 (CO-ADD:GN_001); MIC in CAMBH media using NBS plates, by OD(600)
Results with a measured potency or affinity are listed apart.
In this section we review reported Inhibition values for a set of compounds.
parameter: Inhibition (%)

> print(dat)
                                   compound   parameter  experimental.value
1            CCC(=O)Nc1ccccc1C(=O)Nc1ccccn1  Inhibition               10.48
2  Cc1nn(C)cc1C(C)Nc1nncc(-c2ccc(C(F)(F)F)cc2)n1 (stereo not drawn)  Inhibition                 3.9
3  CN(C(=O)c1cc2c(-c3cncnc3)cccc2[nH]1)c1ccccc1  Inhibition               10.65
4  CCc1ccc([C@@H]2C[C@H](C(F)(F)F)n3ncc(C(=O)NCc4ccc(OC)cc4)c3N2)cc1  Inhibition               -1.62
5  COc1cccc(-c2cc3c(Nc4cccnc4)nccc3[nH]2)c1  Inhibition               -3.86
6                 FC(F)(F)c1nnc2ccc(Cl)nn12  Inhibition                1.56
7   CCCNC(=O)N1CCC2(CC1)CC(=O)c1cc(C)ccc1O2  Inhibition               10.17
8  C[C@H](C(N)=O)N1CCCC[C@H]1c1ccc(OCc2cccc(F)c2)cc1  Inhibition               11.68
